Test: Conjugator-antibody conjugate maleimide hydrolysis (ring opening) kinetics by reduced LCMS
Format: physicochemical
Details: pH 7, time point 3 h
List of RO (%) HC values.

compound	units_symbol	RO (%) HC
CC(C)N(CCC(=O)N(C)C)C(=O)OCC(CN)N1C(=O)C=CC1=O (stereo not drawn)	%	99.84
CN(C)C(=O)CCNC(=O)OCCC(CN)N1C(=O)C=CC1=O (stereo not drawn)	%	92.96
CN(C)C(=O)CN(C)C(=O)OCC(CN)N1C(=O)C=CC1=O (stereo not drawn)	%	96.11
CN(C)C(=O)CCNC(=O)NCC(CN)N1C(=O)C=CC1=O (stereo not drawn)	%	89.82
CN(C)C(=O)CCCCC(CN)N1C(=O)C=CC1=O (stereo not drawn)	%	76.09
CN(C)C(=O)CCOCCC(CN)N1C(=O)C=CC1=O (stereo not drawn)	%	67.87
CN(C)C(=O)CCOCC(N)CN1C(=O)C=CC1=O (stereo not drawn)	%	79.61
CN(C)C(=O)CCNC(=O)OCC(CCN)N1C(=O)C=CC1=O (stereo not drawn)	%	12.32
NCC(COC(=O)NCCOCCOCCOCCOCCC(=O)O)N1C(=O)C=CC1=O (stereo not drawn)	%	88.19

Entry source: patent US20250352659A1
